# Test system: SK-MEL-2
# Test Summary: Effective dose required for inhibitory activity against SK-MEL-2 human tumor cell line.
# Type: functional
# Condition Details: read-out: ED50 (the source's name)
Could you please report measured EC50 for the items listed next?
Express the result in µg/mL but write the number alone.

**Q:** Need EC50 of CCCCCCCCC[C@H](O)[C@@H]1CC[C@@H]([C@@H]2CC[C@@H](CCCCCCCCCC[C@H](O)CC3=C[C@H](C)OC3=O)O2)O1 , thanks.
**A:** 15.3

**Q:** Need EC50 of CCCCCCCCCCCC[C@@H](O)[C@H]1CC[C@H]([C@H](O)CCCCC(O)CCCCCCCC2=C[C@H](C)OC2=O)O1 (stereo partly drawn) , thanks.
**A:** 14.2

**Q:** Need EC50 of CCCCCCCCCCCC[C@@H](O)[C@H]1CC[C@H]([C@H](O)CCCC[C@H](O)CCCCC[C@@H](O)CC2=CC(C)OC2=O)O1 (stereo partly drawn) , thanks.
**A:** 13.8

**Q:** Need EC50 of CCCCCCCCCC[C@@H](O)[C@@H]1CC[C@@H]([C@@H]2CC[C@@H]([C@H](O)CCCCCCCCCC(O)CC3=CC(C)OC3=O)O2)O1 (stereo partly drawn) , thanks.
**A:** 17.1

**Q:** Need EC50 of CCCCCCCC/C=C\CC[C@H](O)[C@@H]1CC[C@@H]([C@H](O)CCCCC(O)CCCCCC(O)CC2=C[C@H](C)OC2=O)O1 (stereo partly drawn) , thanks.
**A:** 17

**Q:** Need EC50 of CCCCCC(O)C(O)CCCCCC[C@@H](O)[C@H]1CC[C@H](CCCCCCCCCC[C@@H](O)CC2=C[C@H](C)OC2=O)O1 (stereo partly drawn) , thanks.
**A:** 18

**Q:** Need EC50 of CCCCCCCC(O)C(O)CCCC[C@@H](O)[C@H]1CC[C@H](CCCCCCCCCCCCC2=C[C@H](C)OC2=O)O1 (stereo partly drawn) , thanks.
**A:** 17.5

**Q:** Need EC50 of CCCCCCCCCCCC[C@H](O)[C@@H]1CC[C@@H]([C@@H](O)CCCCCCC(O)CCCCC[C@@H](O)CC2=C[C@H](C)OC2=O)O1 (stereo partly drawn) , thanks.
**A:** 14.1

**Q:** Need EC50 of CCCCCCCCCCCC[C@@H](O)[C@H]1CC[C@H]([C@H](O)CCCCCC(O)CCCC[C@@H](O)CC2=C[C@H](C)OC2=O)O1 (stereo partly drawn) , thanks.
**A:** 13.1

**Q:** Need EC50 of CCCCCCCCCC[C@H](O)[C@H]1CC[C@H]([C@H]2CC[C@H]([C@H](O)CCCCCCCC[C@@H](O)CC3=C[C@H](C)OC3=O)O2)O1 , thanks.
**A:** 16.4

**Q:** Need EC50 of CCCCCCCCCCCC[C@@H](O)[C@H]1CC[C@@H]([C@@H](O)CCCCC(=O)CCCCCCCC2=C[C@H](C)OC2=O)O1 , thanks.
**A:** 18.8

**Q:** Need EC50 of CCCCCCCCCCCCCC[C@@H](O)[C@H]1CC[C@H]([C@H](O)CCCCC(O)CCCCCC(O)CC2=C[C@H](C)OC2=O)O1 (stereo partly drawn) , thanks.
**A:** 15

**Q:** Need EC50 of CCCCCC[C@H](O)CCC[C@H](O)[C@H]1CC[C@H]([C@H]2CC[C@H]([C@H](O)CCCCCCCCCCCCC3=C[C@H](C)OC3=O)O2)O1 , thanks.
**A:** 16.5

**Q:** Need EC50 of CCCCCCCCCCCC[C@@H](O)[C@H]1CC[C@@H]([C@@H](O)CCCCCCC(O)CCCCC[C@@H](O)CC2=C[C@H](C)OC2=O)O1 (stereo partly drawn) , thanks.
**A:** 15.1
